# Test system: Hs-578T
# ASSAY COMMENT: NCI tumour cell line growth inhibition, 48 h
The source made the active and inactive calls. Cut-off read from the data, not from the text of the source: active = GI50 up to about 1.1 µM and inactive = higher.
Valid outcomes are listed here; reply with one: Yes for active, No for inactive

Prompt: I would be grateful if you could indicate the recorded call for C=CCN1C(=O)/C(=C/c2ccccc2)N=C1SC1OC(COC(C)=O)C(OC(C)=O)C(OC(C)=O)C1OC(C)=O (stereo not drawn) .
Response: No

Prompt: Please state the recorded outcome for this compound: S=P(N1CC1)(N1CC1)N1CC1
Response: No

Prompt: Given CCOC(=O)C1(N)CC1 , state the outcome it received in this test.
Response: No

Prompt: Please let me know the test result on file for COc1ccc2[nH]c3nnc(N)c-3nc2c1 .
Response: No

Prompt: Test call for this compound, please: COc1cc2c3c(c4ccc(O)cc4c2cc1OC)[C@@H](O)[C@@H]1CCCN1C3
Response: Yes

Prompt: What outcome does the record of this test show for Cc1ccc(O)c(/N=N\c2c(O)cc(S(=O)(=O)O)c3ccccc23)c1 ?
Response: No

Prompt: Give the logged outcome of this assay for the following compound: O=C(NCCSSCCNC(=O)/C(Cc1ccc(O)c(Br)c1)=N/O)/C(Cc1ccc(O)c(Br)c1)=N/O
Response: No

Prompt: Recorded test call requested for CCCCCC(/C=C/[C@@H]1[C@@H](C(O)CCCCCC(=O)OC)C(=O)C[C@H]1O[Si](C)(C)C(C)(C)C)OCOCCOC (stereo partly drawn)
Response: No

Prompt: Please share the test call associated with COc1c2cc([N+](=O)[O-])cc1CNC(=O)CN1CCOCCOCCN(CCOCCOCC1)CC(=O)NC2 .
Response: No

Prompt: Per the assay record, what outcome was assigned to O=S1(=O)C(c2ccccc2)C(N2CCCCC2)C1C1CC2c3ccccc3C1c1ccccc12 (stereo not drawn) ?
Response: No

Prompt: Hi, do you know how COc1ccc2[nH]c(S(=O)(=O)N3CC(CCl)c4ccc(N)cc43)cc2c1 (stereo not drawn) came out in this test?
Response: Yes

Prompt: Record lookup: outcome of this test for Oc1cc(O)c2c(c1)O[C@H](c1cc(O)c(O)c(O)c1)[C@@H](O)C2 ?
Response: No

Prompt: What outcome does the record of this test show for C=CCOC(=O)N1c2ccc(O[Si](C)(C)C(C)(C)C)cc2[C@@]23O[C@@]24[C@@H]1C#C/C=C\C#C[C@]3(O)C(OC)(OC)C[C@@H]4C ?
Response: No
